# Test system: GST-tagged Cn
# protocol_notes: PEPperPRINT peptide microarray binding assay with GST-tagged Cn
# measurement_conditions: mean over the chip locations listed for the peptide (two spots)
Everything with Chip Fluorescence (mean) lower than 1 is Not satisfied; everything else, including exactly 1, is Satisfied.

Before answering, review these 8 worked examples.
Exercise: Could you verify whether the entry RAYINPFMQFIDGGRK [SeqRBMlowT_4070] shows Chip Fluorescence (mean) of no less than 1?
Solution: Satisfied

Exercise: Proceed to IKLIIWNHNISNHGTY [SeqRBM_5872]
Solution: Satisfied

Exercise: Proceed to KKMAPPCINIDPAPEN [SeqRBMlowT_2431]
Solution: Not satisfied

Exercise: Proceed to KAYMNPFMQFIDGGRR [SeqRBMlowT_560]
Solution: Not satisfied

Exercise: Proceed to TFWTNPQYRLKLLEED [SeqCAPN11_Tupaia_chinensis]
Solution: Not satisfied

Exercise: Proceed to GPQDIPEVVVSPPEDD [SeqSLC4A7_Austrofundulus_limnaeus]
Solution: Satisfied

Exercise: Proceed to WAGCDTWVFSIWRWIA [Seqrandom_10000]
Solution: Not satisfied

Exercise: Proceed to RQPGQALLELKGHAGA [SeqYPL247C_Erysiphe_pulchra]
Solution: Not satisfied

Next:
Exercise: Could you verify whether the entry KHLDVPDIIITPPTPT [SeqC16orf74_Pan_troglodytes] shows Chip Fluorescence (mean) of no less than 1?
Solution: Satisfied

Exercise: Proceed to RAYINPFMTFIDGGHR [SeqRBMlowT_1519]
Solution: Not satisfied

Exercise: Proceed to KRMEPIAIIITDTEIS [SeqAKAP79_Pan_troglodytes]
Solution: Satisfied

* * *

# Test system: GST-tagged Cn
# protocol_notes: PEPperPRINT peptide microarray binding assay with GST-tagged Cn
# measurement_conditions: GST-tagged Cn, max over the chip locations
Chip Fluorescence (max) reference

Exercise: Hello, I am looking for reported Chip Fluorescence (max) with GST-tagged Cn for RVLECPSIRITSISPT [SeqNFATC4_Homo_sapiens] . Could you help?
Solution: 0.1768

Exercise: Proceed to STSSLPTFSFSSPPST [SeqRBMlowT_3479]
Solution: -1.235

Exercise: Proceed to DSLKIPQVRMRIDSAT [SeqRBM_3711]
Solution: -0.1629

Exercise: Proceed to KQMAPPAINIDFAPTN [SeqRBMlowT_1821]
Solution: -0.4908

Exercise: Proceed to LATQVPTFEITSPNSA [SeqNRG2_Pan_troglodytes]
Solution: 0.1795

Please find the next sequence below.
Exercise: Hello, I am looking for reported Chip Fluorescence (max) with GST-tagged Cn for LLLKIPSLNINDVEAS [SeqRBM_1919] . Could you help?
Solution: -0.781

* * *

Chip Fluorescence (max) reference
# System: GST-tagged Cn
# protocol_notes: PEPperPRINT peptide microarray binding assay with GST-tagged Cn
# measurement_conditions: GST-tagged Cn, max over the chip locations
Give the value as a plain number.

Exercise: Reported Chip Fluorescence (max), sequence KKMAPPCINIDPAPTS [SeqRBMlowT_307] : ____
Solution: 0.2085

Next:
Exercise: Reported Chip Fluorescence (max), sequence GVQANPQFTIKAMMTN [SeqRBM_9281] : ____
Solution: -0.1422

Exercise: Proceed to RTPGTALLTLRGHKKQ [SeqRBMlowT_5808]
Solution: 0.1527

Exercise: Proceed to SHKASPPTLNESPVTH [SeqRBM_2083]
Solution: -0.06558
